# Test Target: Peroxisome proliferator-activated receptor alpha (Homo sapiens, UniProt Q07869)
# Sequence (Q07869 whole entry, the tested form may be a part): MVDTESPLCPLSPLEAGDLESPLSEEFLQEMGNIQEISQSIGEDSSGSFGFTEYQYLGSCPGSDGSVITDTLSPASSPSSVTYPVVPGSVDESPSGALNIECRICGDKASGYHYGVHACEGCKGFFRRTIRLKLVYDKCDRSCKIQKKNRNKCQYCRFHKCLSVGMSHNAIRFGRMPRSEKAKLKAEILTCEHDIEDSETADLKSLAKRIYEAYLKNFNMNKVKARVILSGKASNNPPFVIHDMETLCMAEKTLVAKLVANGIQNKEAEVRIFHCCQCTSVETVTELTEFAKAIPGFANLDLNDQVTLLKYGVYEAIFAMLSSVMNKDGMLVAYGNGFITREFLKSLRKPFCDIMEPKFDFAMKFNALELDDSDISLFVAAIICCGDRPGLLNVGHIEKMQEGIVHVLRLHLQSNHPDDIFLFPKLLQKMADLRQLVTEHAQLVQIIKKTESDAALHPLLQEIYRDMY
# Assay Text: Antagonist activity at PPARalpha expressed in HEK293 cells co-expressing GAL4 assessed as inhibition of GW7647-induced transactivation activity after 16 to 18 hrs by luciferase reporter gene assay
# Format: functional, cell-based
Response field label takes true when IC50 is strictly below 5 µM and false in all other cases.

{"Compound": "CC(C)C(Sc1nc2cc(Cl)ccc2s1)C(=O)NS(C)(=O)=O (configuration not stated)", "Label": "false"}

Data request: Lab note: IC50 threshold 5 µM. Does this compound come in strictly under it? CCCCC(Sc1nc2cc(Cl)ccc2s1)C(=O)NS(C)(=O)=O (configuration not stated)
Data returned: true

Data request: is_below(IC50, 5 µM) for CCCC(Sc1nc2cc(Cl)ccc2s1)C(=O)NS(C)(=O)=O (configuration not stated) ?
Data returned: true

Data request: Determine if CC(C)(Oc1ccc(CCNC(=O)c2ccc(Cl)cc2)cc1)C(=O)NS(C)(=O)=O shows IC50 strictly lower than 5 µM.
Data returned: false

Data request: Quick check: does CS(=O)(=O)NC(=O)C(Sc1nc2cc(Cl)ccc2s1)c1ccccc1 (configuration not stated) have IC50 under 5 µM?
Data returned: true

Data request: For this compound, is IC50 lower than 5 µM? CCCC(Sc1nc2ccc(OCC)cc2s1)C(=O)NS(C)(=O)=O (configuration not stated)
Data returned: false
